// data source = paper PMC7808142

# Method Description: Pharmacokinetics in rats after intravenous and oral administration
# Format: in vivo, Sprague-Dawley rats
# Stated Conditions: male, Sprague-Dawley, rat, plasma, iv, 5 mg/kg
For each of the compounds below, state its MRT last.
Write the answer as a number in min, unit excluded.

Q: Using the record for C[C@@H]1CC[C@H]2[C@@H](C)C(=O)O[C@@H]3O[C@@]4(C)CC[C@@H]1[C@]32OO4 [artemisinin, Artemisinin] , state its measured MRT last.
Ans: 24.5

Q: Using the record for C[C@@H]1CC[C@H]2[C@@H](C)C(=O)O[C@@H]3O[C@@]4(C)CC[C@@H]1[C@]32O4 [deoxyartemisinin, Deoxyartemisinin] , state its measured MRT last.
Ans: 40.3
